The measured values listed here are drawn from PubChem BioAssay (EPA / NIEHS).

- test_details: ATG_BRE_CIS: Attagene CIS-FACTORIAL HepG2 Assay for human Bone Morphogenetic Protein (BMP) Response Element (BRE) (AID 2282933)
- experimental_setup: HepG2 BMP response element reporter, Attagene transcription factor profiling; actives raise or lower the signal
Calls of active or inactive are those of the source. Rule for the calls: active = hit-call score of the fitted dose curve at least 0.9, where 1 is the maximum; inactive = score below 0.9.
Can you answer with just one of these options? 1 (active), -1 (inactive)

Query: In this assay, the call recorded for "S=c1[nH][nH]c(=S)s1" was what?
Response: -1

Query: In this assay, the call recorded for "CC(C)(C)c1cccc(O)c1" was what?
Response: -1

Query: In this assay, the call recorded for "CC(=O)Oc1c(C)c(C)c2c(c1C)CC[C@@](C)(CCC[C@H](C)CCC[C@H](C)CCCC(C)C)O2" was what?
Response: -1

Query: In this assay, the call recorded for CCCCC1CCCCC(=O)O1 (centres undefined) was what?
Response: -1

Query: In this assay, the call recorded for CCCCCC1CCC(=O)O1 (centres undefined) was what?
Response: -1

Query: In this assay, the call recorded for "c1ccc(Cc2ccccc2)cc1" was what?
Response: -1

Query: In this assay, the call recorded for CC1=CC(C)C(C=O)C(C)C1 (centres undefined) (tested in a mixture with another compound) was what?
Response: -1

Query: In this assay, the call recorded for "CC(C)N(c1ccccc1)C(C)C" was what?
Response: -1

Query: In this assay, the call recorded for "CCCCCCCCCCOC(=O)c1ccccc1C(=O)OCCCCCCCC" was what?
Response: -1

Query: In this assay, the call recorded for C=C(C)C(=O)OCCC(C)OC(=O)C(=C)C (centres undefined) was what?
Response: -1

Query: In this assay, the call recorded for "O=c1cc(-c2ccc(O)cc2)oc2cc(O)cc(O)c12" was what?
Response: -1

Query: In this assay, the call recorded for "Cc1cccc(C)c1" was what?
Response: -1

Query: In this assay, the call recorded for "CCCCCCCCCCCCS" was what?
Response: -1

Query: In this assay, the call recorded for CCCCCCCC1CCCC1=O (centres undefined) was what?
Response: -1

Query: In this assay, the call recorded for "Nc1ccn([C@H]2CC[C@@H](CO)O2)c(=O)n1" was what?
Response: -1

Query: In this assay, the call recorded for "Cc1ccncc1" was what?
Response: -1

Query: In this assay, the call recorded for CC(=O)C1C(=O)C=C(C)OC1=O (centres undefined) was what?
Response: -1

Query: In this assay, the call recorded for CCC(=O)OC(C)(C)C1CC=C(C)CC1 (centres undefined) was what?
Response: -1

Query: In this assay, the call recorded for "CC(=N[Si](C)(C)C)O[Si](C)(C)C" was what?
Response: -1

Query: In this assay, the call recorded for "COc1ccccc1O" was what?
Response: -1

Query: In this assay, the call recorded for "Brc1cc(Br)cc(Br)c1" was what?
Response: -1

Query: In this assay, the call recorded for CCC(C)(C)C1CCC(OC)CC1 (centres undefined) was what?
Response: -1

Query: In this assay, the call recorded for "Cc1cc(O)c(C)c(C)c1O" was what?
Response: 1

Query: In this assay, the call recorded for "NC(=O)c1cccnc1" was what?
Response: -1

Query: In this assay, the call recorded for CC1(C)CC(N)CC(C)(CN)C1 (centres undefined) was what?
Response: -1

Query: In this assay, the call recorded for "CCCC[N+](C)(CCCC)CCCC" was what?
Response: -1

Query: In this assay, the call recorded for CC(CCO)CC(C)(C)C (centres undefined) was what?
Response: -1

Query: In this assay, the call recorded for "CC(C)C(=O)OCC=Cc1ccccc1" was what?
Response: -1

Query: In this assay, the call recorded for "ClCCOCCOCCCl" was what?
Response: -1

Query: In this assay, the call recorded for CC(O)CN (centres undefined) was what?
Response: -1

Query: In this assay, the call recorded for "CC(=O)c1cccnc1" was what?
Response: -1

Query: In this assay, the call recorded for "CC/C(=C(\c1ccccc1)c1ccc(OCCN(C)C)cc1)c1ccccc1" was what?
Response: -1

Query: In this assay, the call recorded for "C=C1CC[C@H]2O[C@]2(C)CC[C@@H]2[C@@H]1CC2(C)C" was what?
Response: -1

Query: In this assay, the call recorded for "CN(C)c1ccc(C=O)cc1" was what?
Response: -1

Query: In this assay, the call recorded for "CC(C)C(=O)c1ccccc1" was what?
Response: -1

Query: In this assay, the call recorded for "CCOC(=O)CC(C)C" was what?
Response: -1

Query: In this assay, the call recorded for CCCC(O)C(CC)CO (centres undefined) was what?
Response: -1

Query: In this assay, the call recorded for "CC(C)=CCCC(C)=CC(=O)O" was what?
Response: -1

Query: In this assay, the call recorded for "FC(F)(F)c1ccc(Cl)c(Cl)c1" was what?
Response: -1

Query: In this assay, the call recorded for "CC1=CC[C@@H](C(C)(C)O)CC1" was what?
Response: -1

Query: In this assay, the call recorded for CCCCC(CC)COCCO (centres undefined) was what?
Response: -1

Query: In this assay, the call recorded for "OCC=Cc1ccccc1" was what?
Response: -1

Query: In this assay, the call recorded for "CCCCCCCCOC(C)=O" was what?
Response: -1

Query: In this assay, the call recorded for "CCC(=O)OC/C=C(\C)CCC=C(C)C" was what?
Response: -1

Query: In this assay, the call recorded for "CC(C)N1C(=O)c2ccccc2C1=O" was what?
Response: -1

Query: In this assay, the call recorded for "CCOc1ccc(NC(C)=O)cc1" was what?
Response: -1

Query: In this assay, the call recorded for "CCCOC(=O)CC" was what?
Response: -1

Query: In this assay, the call recorded for "C=C/C(C)=C/C/C=C(\C)CCC=C(C)C" was what?
Response: -1

Query: In this assay, the call recorded for CCCCCC1C(=O)CCC1CC(=O)OC (centres undefined) was what?
Response: -1

Query: In this assay, the call recorded for CC(C)Cc1ccc(C(C)C(=O)O)cc1 (centres undefined) was what?
Response: -1

Query: In this assay, the call recorded for "CC1=C(C=O)C(C)(C)CCC1" was what?
Response: -1

Query: In this assay, the call recorded for "CCCc1ccc(N)cc1" was what?
Response: -1

Query: In this assay, the call recorded for C=CCOCC(O)CO (centres undefined) was what?
Response: -1

Query: In this assay, the call recorded for "CCCCC/C=C\C=C\C(=O)OCC" was what?
Response: -1
